Target: X-box-binding protein 1 (Homo sapiens)
Assay: ATG_Xbp1_CIS: Attagene CIS-FACTORIAL HepG2 Assay for human X-box Binding Protein 1 (XBP1) (AID 2282972)
Details: HepG2 XBP1 cis-element reporter, Attagene multiplex; actives raise or lower the signal
Calls of active or inactive are those of the source. Rule for the calls: active = hit-call score of the fitted dose curve at least 0.9, where 1 is the maximum; inactive = score below 0.9.
Labels: class 1 = active, class 0 = inactive

# compound, class
rows = [
    ("CCC/C=C/CO", "class 0"),
    ("CC(C)(C)c1cc(Cc2cc(C(C)(C)C)c(O)c(C(C)(C)C)c2)cc(C(C)(C)C)c1O", "class 0"),
    ("CCCCCCCC/C=C\\CCCCCCCC(=O)OCC(O)CO (stereo not drawn)", "class 0"),
    ("C#CC(O)CCC (stereo not drawn)", "class 0"),
    ("CCOC(=O)C1CC(=O)C(=C(O)C2CC2)C(=O)C1 (stereo not drawn)", "class 0"),
    ("O=C(Cl)c1ccc(Cl)cc1Cl", "class 0"),
    ("Cc1ccc2c(c1)OCC(=O)CO2", "class 0"),
    ("O=C(O)CCC(F)(F)C(F)(F)C(F)(F)C(F)(F)C(F)(F)C(F)(F)C(F)(F)F", "class 0"),
    ("NC(O)(C(F)(F)F)C(F)(F)F", "class 0"),
    ("C[Si](Cl)(Cl)CCC(F)(F)C(F)(F)C(F)(F)C(F)(F)C(F)(F)C(F)(F)F", "class 0"),
    ("Cc1ccc([N+](=O)[O-])c(C)c1", "class 0"),
    ("O=C1C=CC(=O)N1c1ccc(Cc2ccc(N3C(=O)C=CC3=O)cc2)cc1", "class 1"),
    ("Nc1cc([N+](=O)[O-])cc(Cl)c1O", "class 0"),
]

----------
Experiment: TOX21_p53_BLA_p2_viability: Viability Assessment in the Tox21 HCT-116 p53 Agonism Beta-lactamase Assay, Phase 2 (AID 2283591);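 note: compound exposure lasted 16 h at 37 °C; actives lower the ATP signal meaning cytotoxicity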
Records with an inconclusive call do not appear. Activity calls are given as the source filed them. How the source made its calls: active means hit-call score of the fitted dose curve at least 0.9, where 1 is the maximum; inconclusive means response in the unintended direction; inactive means score below 0.9.
Labels: active, inactive

# compound, class
rows = [
    ("CN(N=O)C(=O)N[C@@H]1[C@@H](O)[C@H](O)[C@@H](CO)O[C@@H]1O", "inactive"),
    ("CCOC(=O)CCC(C)=O", "inactive"),
    ("CC(C)OC=O", "inactive"),
    ("CCC/C=C/CO", "inactive"),
    ("C[C@]12CC[C@H]3C(=CCc4cc(O)ccc43)[C@@H]1CCC2=O", "inactive"),
    ("CCCCCCCC/C=C\\CCCCCCCC(=O)N(C)CC(=O)O", "active"),
    ("CCC(Cc1c(I)cc(I)c(N)c1I)C(=O)O (centres undefined)", "inactive"),
    ("CC(C)(C)C(=O)C1C(=O)c2ccccc2C1=O", "inactive"),
    ("O=C1C=CC(=O)N1c1ccccc1", "active"),
    ("O=C(c1ccccc1)c1ccc(O)cc1O", "inactive"),
    ("CCC(=O)OC(C)c1ccccc1 (centres undefined)", "inactive"),
    ("CC(C)CCCC(C)CCO (centres undefined)", "inactive"),
    ("Cc1ccc(O)c(-n2nc3ccccc3n2)c1", "inactive"),
    ("Cc1ccc2c(c1)OCC(=O)CO2", "inactive"),
]

----------
Biological target: human Peripheral-type Benzodiazepine Receptor (PBR), TSPO (gene 706) (UniProt P30536)
Sequence (P30536 whole entry, looked up): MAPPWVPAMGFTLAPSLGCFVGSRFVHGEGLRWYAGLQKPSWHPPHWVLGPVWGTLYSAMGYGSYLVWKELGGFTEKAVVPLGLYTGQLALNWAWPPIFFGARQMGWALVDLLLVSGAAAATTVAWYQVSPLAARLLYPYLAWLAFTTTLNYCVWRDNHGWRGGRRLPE
Assay: NVS_MP_hPBR: NovaScreen (NVS) Membrane Protein Assay for human Peripheral-type Benzodiazepine Receptor (PBR) (AID 2283331);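 note: hits reduce radioligand binding relative to DMSO baseline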
Method: NVS_MP_hPBR is a biochemical, single-readout assay that uses extracted gene-proteins from Human colonic cell membranes in a tissue-based cell-free assay. Measurements were taken 1 hour after chemical dosing in a 48-well plate.NVS_MP_hPBR is one of one assay component(s) measured or calculated from the NVS_MP_hPBR assay. […] This assay endpoint, NVS_MP_hPBR, was analyzed in the positive analysis fitting direction relative to DMSO as the negative control and baseline of activity. […]
Results filed as inconclusive are left out. Active and inactive are the calls of the source. Rule for the calls: active = hit-call score of the fitted dose curve at least 0.9, where 1 is the maximum; inconclusive = response in the unintended direction; inactive = score below 0.9.
Labels: 1 (yes) for active, 0 (no) for inactive

# compound, class
data = [
    ("CCN(CC)c1ccc(C=O)c(O)c1", "0 (no)"),
    ("CCCCCCCCCCCCCC[P+](CCCC)(CCCC)CCCC", "1 (yes)"),
    ("CCN(CC)c1ccc(C=O)cc1", "0 (no)"),
    ("Cc1ccc(S(=O)(=O)C(I)I)cc1", "1 (yes)"),
    ("CCN=C1C=CC(=C(c2ccc(N(CC)CC)cc2)c2ccc(N(CC)CC)cc2)c2ccccc21", "1 (yes)"),
    ("O=C=NCc1cccc(CN=C=O)c1", "1 (yes)"),
    ("CCCCCCCC/C=C\\CCCCCCCC(=O)N(C)CC(=O)O", "0 (no)"),
    ("CCCCCCCC/C=C\\CCCCCCCC(=O)OCC(O)CO (stereo not drawn)", "1 (yes)"),
    ("CCCCCCCCCCCCC[N+](C)(C)Cc1ccccc1", "1 (yes)"),
    ("O=C=Nc1cccc2c(N=C=O)cccc12", "1 (yes)"),
    ("CCN(CC)c1ccc2c(c1)Oc1cc(N(CC)CC)ccc1C21OC(=O)c2ccccc21", "0 (no)"),
    ("CCCC(=O)OCC(COC(=O)CCC)OC(=O)CCC", "0 (no)"),
    ("CC(C)Nc1ccc(NC(C)C)c2c1C(=O)c1ccccc1C2=O", "1 (yes)"),
]

----------
Read-out: Human Leukocyte Antigen - DR isotype (HLADR), HLA-DRA (gene 3122)
Experiment: BSK_CASM3C_HLADR: BioMAP Diversity Plus: CASM3C Assay for Human Leukocyte Antigen - DR isotype (HLADR) Biomarker Activity (AID 2283043);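 note: cell-surface HLA-DR protein level quantified by ELISA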
Details: primary human coronary artery smooth muscle cells; actives raise or lower the signal
The source made the active and inactive calls. How the source made its calls: active means hit-call score of the fitted dose curve at least 0.9, where 1 is the maximum; inactive means score below 0.9.
Labels: Yes (active), No (inactive)

# compound, class
measured = [
    ("C=C(C)C(=O)OCC(F)(F)C(F)(F)C(F)(F)C(F)F", "No"),
    ("NC(=O)C(F)(F)C(F)(F)C(F)(F)C(F)F", "No"),
    ("O=S(=O)(Cl)C(F)(F)C(F)(F)C(F)(F)C(F)(F)C(F)(F)C(F)(F)C(F)(F)C(F)(F)F", "No"),
    ("O=C(O)C(F)(F)C(F)(F)C(F)(F)C(F)(F)C(F)(F)C(F)(F)C(F)F", "No"),
    ("FC(F)(F)C(F)(F)C(F)(F)C(F)(F)C(F)(F)C(F)(F)C(F)(F)CCI", "No"),
    ("CNS(=O)(=O)C(F)(F)C(F)(F)C(F)(F)C(F)(F)C(F)(F)C(F)(F)C(F)(F)C(F)(F)F", "No"),
    ("NC(=O)C(F)(F)C(F)(F)C(F)(F)C(F)(F)C(F)(F)C(F)(F)C(F)(F)F", "No"),
    ("O=C(O)C(F)(F)OC(F)(F)C(F)(F)OC(F)(F)C(F)(F)OC(F)(F)F", "No"),
    ("Cc1cc(O)c(C(C)(C)C)cc1C(C)(C)C", "Yes"),
    ("O=S(=O)(OCC(F)(F)F)C(F)(F)C(F)(F)C(F)(F)C(F)(F)F", "No"),
    ("Cc1cc(C)c(O)c(C(C)(C)C)c1", "Yes"),
    ("O=C(O)C(F)(F)C(F)(F)C(F)(F)C(=O)O", "No"),
    ("CCOC(C=C(C)CCC=C(C)C)OCC", "Yes"),
    ("O=C=NCc1cccc(CN=C=O)c1", "No"),
    ("O=C=Nc1cccc2c(N=C=O)cccc12", "No"),
    ("O=C(O)C(F)(F)C(F)(F)C(F)(F)OC(F)(C(F)(F)F)C(F)(F)F", "No"),
    ("CC(C)CCCC(C)CCO (stereo unspecified)", "Yes"),
    ("OCCCCC(F)(F)C(F)(F)C(F)(F)C(F)(F)F", "No"),
    ("CN(C(=O)C(F)(F)C(F)(F)C(F)(F)F)[Si](C)(C)C", "No"),
    ("Nc1cc([N+](=O)[O-])cc(Cl)c1O", "No"),
    ("O=C(O)CCC(F)(F)C(F)(F)C(F)(F)F", "No"),
    ("Brc1nc2ccccc2s1", "No"),
    ("O=C(O)C(F)(F)C(F)(F)C(F)(F)OC(F)(F)F", "No"),
    ("O=C(F)C1(F)C(F)(F)C(F)(F)C(F)(F)C(F)(F)C1(F)F", "No"),
    ("Cc1ccc(O)c(-n2nc3ccccc3n2)c1", "No"),
    ("CCN(CC)c1ccc2c(c1)Oc1cc(N(CC)CC)ccc1C21OC(=O)c2ccccc21", "No"),
    ("OCC(F)(F)C(F)(F)C(F)(F)CO", "No"),
    ("O=C(O)CCC(F)(F)C(F)(F)C(F)(F)C(F)(F)C(F)(F)C(F)(F)C(F)(F)F", "No"),
    ("FC(F)(F)C(F)(F)C(F)(F)C(F)(F)C(F)(F)C(F)(F)CC[Si](Cl)(Cl)Cl", "No"),
    ("CC(C)(C)c1cc(CCC(=O)NCCCCCCNC(=O)CCc2cc(C(C)(C)C)c(O)c(C(C)(C)C)c2)cc(C(C)(C)C)c1O", "No"),
    ("COC(F)(C(F)F)C(F)(F)F (stereo unspecified)", "No"),
    ("O=S(=O)(O)CCC(F)(F)C(F)(F)C(F)(F)C(F)(F)C(F)(F)C(F)(F)C(F)(F)C(F)(F)F", "No"),
    ("OCC(F)(F)C(F)(F)C(F)(F)C(F)(F)C(F)(F)C(F)(F)CO", "No"),
    ("O=S(=O)(O)CCC(F)(F)C(F)(F)C(F)(F)C(F)(F)F", "No"),
    ("FC(F)(F)C(F)(F)C(F)(F)CC1CO1 (stereo unspecified)", "No"),
    ("NC(=O)C(F)(F)C(F)(F)C(F)(F)C(F)(F)C(N)=O", "No"),
]
